# system: HIV-1 Env of RHPA.7 (HIV-1)
# test-method-notes: cell-based or functional assay
recorded-endpoint: neutralization IC50

Q: Query neutralization IC50 for CAP256-VRC26.01 (antibody, V domains shown) VH: EVQVVESGGGVVQPGRSLRLSCTASGFTFSNFAMGWVRQAPGKGLEWVAFISSDGSNKNYGDSVKGRFTISRDNSKNTVFLQMNSLRVEDTALYYCAKDVGDYKSDEWGTEYYDISISYPIQDPRAMVGAFDLWGQGTMVTVSP VL: QSVLTQPPSVSAAPGQKVTISCSGSSSTIGNNYVSWYRLLPGTAPKLLIYKNDNRPSGIPDRFSGSKSGTSATLGISGLQTGDEADYYCGTWDTSLSGGGVFGTGTKVTVLG
A: > 50 µg/mL

Q: Query neutralization IC50 for CAP256-VRC26.11 (antibody, V domains shown) VH: EVQLVESGGGVVPPGKSLTLSCVASRFTFSAFGMHWVRQAPGKGLEWVASISFAGIKKYYADSVKGRFSISRDNSNTLFLQMNGLRGEDTGLYHCVKDMRELECEEWASDYYDFGKPQPCLDRRGVSGISAWWGPGTMVTVSS VL: QSVLTQPPSVSAAPGQNVTISCSGPPSHIEKNDVSWYQRLPGMAPKMVIYESKRRPLGIPVRFSASRSGSSATLVITGLQTADEADYYCGTWDGRMNFGTGTTVSVLG
A: > 50 µg/mL

Q: Query neutralization IC50 for CAP256-VRC26.12 (antibody, V domains shown) VH: EVQLVQSGGGVVQPGRSLRLSCAAPYFEFGRYGFHWVRQAPGKGLEWVASISFAGRDYYHSPSVWGRFTISRDNSKNTLYLQMNSLRIEDTALYFCARDLRESECEEWESDYYDFGKKGPCVKPRGVAGGLDLWGQGTMVIVSS VL: QSVLTQPPSVSTAPGQTVTVSCSGGTSNTGNNFVSWYQHLPGTAPKLLIYENNKRPLGVPDRFSGAKSGTSATLAITGLQTGDEGDYYCATWSGSLNIGTGTKVSVLG
A: > 50 µg/mL
